Give measured pKi for each item. Keep answers brief.
Molecular target: reduced-folate carrier (RFC) (Homo sapiens, UniProt P41440)
Construct: endogenous in cells
Sequence (P41440 1-591): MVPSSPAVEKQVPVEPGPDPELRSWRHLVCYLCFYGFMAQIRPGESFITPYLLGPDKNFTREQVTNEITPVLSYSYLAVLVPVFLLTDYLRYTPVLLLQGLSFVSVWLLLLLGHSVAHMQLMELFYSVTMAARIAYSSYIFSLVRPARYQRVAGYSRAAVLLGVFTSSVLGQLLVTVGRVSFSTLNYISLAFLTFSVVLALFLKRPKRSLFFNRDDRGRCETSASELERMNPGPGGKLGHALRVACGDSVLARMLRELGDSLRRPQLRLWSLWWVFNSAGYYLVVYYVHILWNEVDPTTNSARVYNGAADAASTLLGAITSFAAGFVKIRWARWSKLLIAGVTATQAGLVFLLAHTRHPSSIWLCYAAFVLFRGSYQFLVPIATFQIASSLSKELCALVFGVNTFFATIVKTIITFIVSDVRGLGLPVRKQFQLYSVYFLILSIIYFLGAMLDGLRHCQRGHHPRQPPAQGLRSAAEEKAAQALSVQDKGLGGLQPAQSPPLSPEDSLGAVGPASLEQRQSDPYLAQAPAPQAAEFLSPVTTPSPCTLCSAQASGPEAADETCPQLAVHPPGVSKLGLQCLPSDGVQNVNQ
Experiment: Inhibition of 3H MTX uptake in W1L2 cells
Settings: Inhibition of 3H MTX uptake Ki, W1L2, human lymphoblastoid W1L2 cells; high Ki = low affinity for RFC
Give bare numbers, as −log10 of the molar value.

{"columns": ["COMPOUND", "pKi"],
 "data": [
  ["C#CCN(Cc1cc2c(=O)[nH]c(C)nc2cc1C)c1ccc(C(=O)N[C@@H](CCC(=O)O)C(=O)O)cc1 [CB3900, reference compound]", 5.89]
]}

Query: Could you share what pKi was measured for C#CCN(c1ccc(C(=O)N[C@@H](CCC(=O)N[C@H](CCC(=O)O)c2nnn[nH]2)C(=O)O)cc1)[C@H]1CCc2cc3nc(C)[nH]c(=O)c3cc21 [CB300907 (S)] , tested on reduced-folate carrier (RFC) (Homo sapiens, UniProt P41440)?
Result: 3.85

====

Kindly supply the reported pKi values for the records listed here.
target: reduced-folate carrier (RFC) (Homo sapiens, UniProt P41440); construct: endogenous in cells; test: Inhibition of 3H MTX uptake in W1L2 cells; settings: Inhibition of 3H MTX uptake Ki, W1L2, human lymphoblastoid W1L2 cells; high Ki = low affinity for RFC
Numbers only, as −log10 of the molar value.

{"columns": ["COMPOUND", "pKi"],
 "data": [
  ["C#CCN(c1ccc(C(=O)N[C@@H](CCC(=O)N[C@H](CCC(=O)O)C(=O)O)C(=O)O)cc1)C1CCc2cc3nc(C)[nH]c(=O)c3cc21 (mixture of isomers) [CB300638 (R, S)]", 3.55]
]}

Shift focus to the following entry.
Query: pKi for C#CCN(c1ccc(C(=O)N[C@@H](CCC(=O)N[C@H](CCC(=O)O)C(=O)O)C(=O)O)cc1)[C@H]1CCc2cc3nc(C)[nH]c(=O)c3cc21 [CB300638 (S)] ?
Result: 3.94

====

tested on: A431-FBP cells; assay: Inhibition of cell growth, A431-FBP cells; conditions: Homo sapiens, read-out: Inhibition of cell growth, IC50, A431-FBP
Assign pIC50 to each entry below.
Answers are plain numbers, as −log10 of the molar value.

{"columns": ["COMPOUND", "pIC50"],
 "data": [
  ["C#CCN(c1ccc(C(=O)N[C@@H](CCC(=O)N(C)[C@@H](CCC(=O)O)C(=O)O)C(=O)O)cc1)C1CCc2cc3nc(CO)[nH]c(=O)c3cc21 (mixture of isomers) [CB300960 (R, S)]", 7.55]
]}

Please give pIC50 for each item listed below.
1. C#CCN(Cc1ccc2nc(C)[nH]c(=O)c2c1)c1ccc(C(=O)N[C@@H](CCC(=O)O)C(=O)O)cc1 [ICI 198583, reference compound]
2. C#CCN(c1ccc(C(=O)N[C@@H](CCC(=O)O)C(=O)O)cc1)C1CCc2cc3nc(CO)[nH]c(=O)c3cc21 (stereo partly drawn) [CB300959 (R, S), reference compound]
3. C#CCN(Cc1cc2c(=O)[nH]c(C)nc2cc1C)c1ccc(C(=O)N[C@@H](CCC(=O)O)C(=O)O)cc1 [CB3900, reference compound]

Result:
1: 7.92; 2: 5.06; 3: 5.85

Query: Query for A431-FBP cells: what pIC50 does the record show for C#CCN(c1ccc(C(=O)N[C@@H](CCC(=O)N[C@H](CCC(=O)O)C(=O)O)C(=O)O)cc1)[C@H]1CCc2cc3nc(C)[nH]c(=O)c3cc21 [CB300638 (S)] ?
Result: 8.52

====

molecular target: thymidylate synthase (TS) from L1210 mouse leukaemia cells (Mus musculus); construct: obtained in partially purified form from L1210 mouse leukaemia cells; endogenous in cells; host or cells: L1210 mouse leukaemia cells (enzyme partially purified); test: Inhibition of isolated L1210 thymidylate synthase; type: biochemical; conditions: Inhibition of isolated L1210 TS, Kiapp
Sequence (P07607 whole entry): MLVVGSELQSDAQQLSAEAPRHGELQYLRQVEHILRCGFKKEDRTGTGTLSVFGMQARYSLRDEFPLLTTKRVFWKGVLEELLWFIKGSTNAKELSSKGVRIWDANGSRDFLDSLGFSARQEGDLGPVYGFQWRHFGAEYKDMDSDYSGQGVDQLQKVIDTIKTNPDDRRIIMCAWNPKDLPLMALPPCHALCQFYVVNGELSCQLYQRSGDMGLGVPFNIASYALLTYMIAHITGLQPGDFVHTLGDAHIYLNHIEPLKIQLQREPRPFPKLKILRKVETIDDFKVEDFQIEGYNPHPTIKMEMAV
OUTCOME MEASURE: Ki (nM)
Give bare numbers, in nM.

Query: Name the recorded Ki for C#CCN(c1ccc(C(=O)N[C@@H](CCC(=O)N[C@H](CCC(=O)O)C(=O)O)C(=O)O)cc1)[C@H]1CCc2cc3nc(CO)[nH]c(=O)c3cc21 [CB300945 (S)] .
Result: 1.9

====

molecular target: reduced-folate carrier (RFC) (Mus musculus); construct: endogenous in cells; assay: Inhibition of 3H MTX uptake in L1210 cells; conditions: Inhibition of 3H MTX uptake Ki, L1210, mouse L1210 tumor cells; high Ki = low affinity for RFC
Sequence (P41438 whole entry): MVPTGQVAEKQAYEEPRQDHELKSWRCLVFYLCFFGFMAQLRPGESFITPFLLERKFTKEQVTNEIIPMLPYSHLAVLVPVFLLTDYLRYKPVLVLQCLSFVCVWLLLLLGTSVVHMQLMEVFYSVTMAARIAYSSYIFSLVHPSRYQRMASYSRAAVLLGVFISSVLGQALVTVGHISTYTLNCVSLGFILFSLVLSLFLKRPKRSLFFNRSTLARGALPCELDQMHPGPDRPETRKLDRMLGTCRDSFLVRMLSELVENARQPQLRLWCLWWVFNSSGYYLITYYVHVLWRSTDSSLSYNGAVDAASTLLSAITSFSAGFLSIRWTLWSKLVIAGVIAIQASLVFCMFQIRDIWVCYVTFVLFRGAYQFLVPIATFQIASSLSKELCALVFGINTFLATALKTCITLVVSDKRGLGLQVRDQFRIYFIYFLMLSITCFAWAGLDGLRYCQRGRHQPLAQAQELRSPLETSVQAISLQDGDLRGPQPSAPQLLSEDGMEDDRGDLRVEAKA
Would you kindly list pKi for each of these compounds?
Give bare numbers, as −log10 of the molar value.

Some entries whose results are on file:
{"columns": ["COMPOUND", "DATA VALUE"],
 "data": [
  ["C#CCN(c1ccc(C(=O)N[C@@H](CCC(=O)N[C@H](CCC(=O)O)C(=O)O)C(=O)O)cc1)C1CCc2cc3nc(C)[nH]c(=O)c3cc21 (mixture of isomers) [CB300638 (R, S)]", 3.78],
  ["C#CCN(Cc1ccc2nc(C)[nH]c(=O)c2c1)c1ccc(C(=O)N[C@@H](CCC(=O)O)C(=O)O)cc1 [ICI 198583, reference compound]", 5.59],
  ["C#CCN(c1ccc(C(=O)N[C@@H](CCC(=O)N[C@H](CCC(=O)O)c2nnn[nH]2)C(=O)O)cc1)[C@H]1CCc2cc3nc(C)[nH]c(=O)c3cc21 [CB300907 (S)]", 3.73]
]}

Okay, now this compound:
Query: Query (compound): C#CCN(Cc1ccc2nc(N)[nH]c(=O)c2c1)c1ccc(C(=O)N[C@@H](CCC(=O)O)C(=O)O)cc1 [CB3717, reference compound] ; field requested: pKi
Result: 4.34

====

molecular target: α-FR (Homo sapiens, UniProt P15328); construct: expressed in transfected cells; host or cells: A431 (human vulvar carcinoma); experiment: Binding to α-FR relative to folic acid, A431-FBP cells; conditions: human A431 cells transfected with α-FR; folic acid = 1
Sequence (P15328 25-234): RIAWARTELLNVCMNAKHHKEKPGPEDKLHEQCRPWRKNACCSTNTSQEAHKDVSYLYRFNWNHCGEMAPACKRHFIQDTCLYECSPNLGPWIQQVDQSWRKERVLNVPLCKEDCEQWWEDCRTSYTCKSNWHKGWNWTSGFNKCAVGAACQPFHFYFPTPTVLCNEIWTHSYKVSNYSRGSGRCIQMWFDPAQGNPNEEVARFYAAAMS
OUTCOME MEASURE: Inverse relative affinity for α-FR, A431-FBP
Answers are plain numbers.

{"columns": ["MOLECULE", "EXPERIMENTAL TARGET", "DATA VALUE"],
 "data": [
  ["C#CCN(c1ccc(C(=O)N[C@@H](CCC(=O)N[C@H](CCC(=O)O)C(=O)O)C(=O)O)cc1)[C@H]1CCc2cc3nc(CO)[nH]c(=O)c3cc21 [CB300945 (S)]", "α-FR (Homo sapiens, UniProt P15328)", 0.69],
  ["C#CCN(c1ccc(C(=O)N[C@@H](CCC(=O)N[C@H](CCC(=O)O)C(=O)O)C(=O)O)cc1)C1CCc2cc3nc(CO)[nH]c(=O)c3cc21 (mixture of isomers) [CB300945 (R, S)]", "α-FR (Homo sapiens, UniProt P15328)", 0.67]
]}

Kindly review the next molecule as well.
Query: Could you share which Inverse relative affinity for α-FR, A431-FBP value was measured for C#CCN(c1ccc(C(=O)N[C@@H](CCC(=O)N[C@H](CCC(=O)O)C(=O)O)C(=O)O)cc1)[C@H]1CCc2cc3nc(C)[nH]c(=O)c3cc21 [CB300638 (S)] ?
Result: 0.53

Where do these numbers come from? They come from patent US7528141B2.
